test-target: T1, SEMA domain (Homo sapiens, UniProt P08581)
T1 construct: the recombinant c-Met-Fc protein and the recombinant SEMA domain
T1 sequence (P08581 27-515 limits assumed): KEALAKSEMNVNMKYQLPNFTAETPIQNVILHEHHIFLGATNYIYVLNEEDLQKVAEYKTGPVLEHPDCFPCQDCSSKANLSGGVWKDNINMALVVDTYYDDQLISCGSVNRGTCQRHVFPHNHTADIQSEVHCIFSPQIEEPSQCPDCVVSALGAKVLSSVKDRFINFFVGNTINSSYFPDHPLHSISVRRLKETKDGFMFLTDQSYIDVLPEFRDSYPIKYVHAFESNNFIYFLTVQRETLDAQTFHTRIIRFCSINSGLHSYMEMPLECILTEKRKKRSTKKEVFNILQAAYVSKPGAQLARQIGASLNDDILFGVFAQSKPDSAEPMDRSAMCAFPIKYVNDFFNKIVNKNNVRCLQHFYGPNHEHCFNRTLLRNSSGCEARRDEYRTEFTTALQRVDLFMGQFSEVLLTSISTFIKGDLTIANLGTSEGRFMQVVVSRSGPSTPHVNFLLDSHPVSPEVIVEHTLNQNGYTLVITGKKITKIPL
test-summary: ELISA recognition of recombinant SEMA domain
Format: binding
readout-label: binding to SEMA domain

[
  {
    "molecule": "223C4: murine anti-c-Met monoclonal antibody, IgG1 kappa; heavy chain SEQ ID No. 20, light chain SEQ ID No. 23 (antibody, V domains shown, mus musculus) VH: EVLLQQSGPELVKPGASVKIPCKASGYTFTDYNMDWVKQSHGMSLEWIGDINPNNGGTIFNQKFKGKATLTVDKSSSTAYMELRSLTSEDTAVYYCARGRYVGYYYAMDYWGQGTSVTVSS VL: DIQMTQSPASLSVSVGETVTITCRASENIYSNLAWYQQKQGKSPQLLVYAATNLVDGVPSRFSGSGSGTQYSLKINSLQSEDFGSYYCQHFWGPPYTFGGGTKLEIK",
    "readout-label": "binding to SEMA domain",
    "result-value": "did not bind"
  },
  {
    "molecule": "224G11: murine anti-c-Met monoclonal antibody, IgG1 kappa; heavy chain SEQ ID No. 18, light chain SEQ ID No. 21 (antibody, V domains shown, mus musculus) VH: EVQLQQSGPELVKPGASVKISCKTSGYIFTAYTMHWVRQSLGESLDWIGGIKPNNGLANYNQKFKGKATLTVDKSSSTAYMDLRSLTSEDSAVYYCARSEITTEFDYWGQGTALTVSS VL: DIVLTQSPASLAVSLGQRATISCRASESVDSYANSFMHWYQQKPGQPPKLLIYRASNLESGIPARFSGSGSRTDFTLTINPVEADDVATYYCQQSKEDPLTFGSGTKLEMK",
    "readout-label": "binding to SEMA domain",
    "result-value": "did not bind"
  }
]
